Measured on: PcβGlu2
Construct: 93 kDa SDS-PAGE, 89 kDa gel filtration (abstract 95 kDa), monomer; GH3 only tentative (MS on heterogeneous fraction)
Test protocol: pNPβGlu hydrolysis, p-nitrophenol release at […] nm
Type: biochemical, Penicillium citrinum
Measurement context: competitive; substrate pNPβGlu; 50 mM sodium acetate pH 5.0, 40 °C; read-out: Ki
Quantity: Ki (µM)
Express your answer in µM, writing the number without its unit.

Entry OC[C@H]1OC(O)[C@H](O)[C@@H](O)[C@@H]1O (stereo partly shown) ; Ki = 880

---

Measured on: PcβGlu2
Construct: 93 kDa SDS-PAGE, 89 kDa gel filtration (abstract 95 kDa), monomer; GH3 only tentative (MS on heterogeneous fraction)
Test protocol: pNPβGlu hydrolysis, p-nitrophenol release at […] nm
Format: biochemical, Penicillium citrinum
Measurement context: mixed-type noncompetitive, free-enzyme constant; substrate pNPβGlu; 50 mM sodium acetate pH 5.0, 40 °C; read-out: KIE
Quantity: Ki (mM)
Write it as a number; the unit mM goes unstated.

Short answer for OC[C@H]1O[C@@H](O[C@H]2[C@H](O)[C@@H](O)C(O)O[C@@H]2CO)[C@H](O)[C@@H](O)[C@@H]1O (stereo partly shown) [cellobiose] : Ki was 3.74

---

Tested on: PcβGlu2
Construct: 93 kDa SDS-PAGE, 89 kDa gel filtration (abstract 95 kDa), monomer; GH3 only tentative (MS on heterogeneous fraction)
Test protocol: glucose release, glucose oxidase method at […] nm
Format: biochemical, Penicillium citrinum
Measurement context: 50 mM sodium acetate pH 5.0, 40 °C; substrate-inhibition model
Quantity: Km
Reply with a number, then the unit it belongs to.

Recorded result, CCCCCCCCO[C@@H]1O[C@H](CO)[C@@H](O)[C@H](O)[C@H]1O [Octyl-β-glucopyranoside] , Km: 190 µM

Recorded Km (molecule OC[C@H]1O[C@@H](O[C@H]2[C@H](O)[C@@H](O)[C@H](O[C@H]3[C@H](O)[C@@H](O)[C@H](O[C@H]4[C@H](O)[C@@H](O)C(O)O[C@@H]4CO)O[C@@H]3CO)O[C@@H]2CO)[C@H](O)[C@@H](O)[C@@H]1O (stereo partly shown) [Cellotetraose] ): 280 µM

// sample OC[C@H]1O[C@@H](O[C@H]2[C@H](O)[C@@H](CO)OC(O)[C@@H]2O)[C@H](O)[C@@H](O)[C@@H]1O (stereo partly shown) [Laminaribiose] , its Km was 420 µM

Others:
Memo: OC[C@H]1O[C@@H](O[C@H]2[C@H](O)[C@@H](O)[C@H](O[C@H]3[C@H](O)[C@@H](O)[C@H](O[C@H]4[C@H](O)[C@@H](O)[C@H](O[C@H]5[C@H](O)[C@@H](O)C(O)O[C@@H]5CO)O[C@@H]4CO)O[C@@H]3CO)O[C@@H]2CO)[C@H](O)[C@@H](O)[C@@H]1O (stereo partly shown) [Cellopentaose] , reported Km: 70 µM

---

System: PcβGlu1
Construct: native secreted enzyme purified from wheat-bran culture supernatant (ammonium sulfate, phenyl sepharose); 134 kDa SDS-PAGE, 258 kDa gel filtration (abstract 241 kDa), homodimer
Test protocol: glucose release, glucose oxidase method at […] nm
Assay type: biochemical, Penicillium citrinum
Measurement context: 50 mM sodium acetate pH 5.0, 40 °C
Quantity: Km (µM)
The reply should be a number in µM, with the unit left off.

Some entries whose results are on file:
With PcβGlu1 as the test system, OC[C@H]1O[C@@H](O[C@H]2[C@H](O)[C@@H](O)[C@H](O[C@H]3[C@H](O)[C@@H](O)[C@H](O[C@H]4[C@H](O)[C@@H](O)[C@H](O[C@H]5[C@H](O)[C@@H](O)C(O)O[C@@H]5CO)O[C@@H]4CO)O[C@@H]3CO)O[C@@H]2CO)[C@H](O)[C@@H](O)[C@@H]1O (stereo partly drawn) showed Km of 250

Form field Km for item OC[C@H]1O[C@@H](O[C@H]2[C@H](O)[C@@H](O)[C@H](O[C@H]3[C@H](O)[C@@H](O)[C@H](O[C@H]4[C@H](O)[C@@H](O)C(O)O[C@@H]4CO)O[C@@H]3CO)O[C@@H]2CO)[C@H](O)[C@@H](O)[C@@H]1O (stereo partly drawn) on PcβGlu1: 420

Entry OC[C@H]1O[C@@H](O[C@H]2[C@H](O)[C@@H](CO)OC(O)[C@@H]2O)[C@H](O)[C@@H](O)[C@@H]1O (stereo partly drawn) ; assay system PcβGlu1; Km recorded at 330

Reported PcβGlu1 Km for item OC[C@H]1O[C@@H](OC[C@H]2OC(O)[C@H](O)[C@@H](O)[C@@H]2O)[C@H](O)[C@@H](O)[C@@H]1O (stereo partly drawn) was 380

GET /values?item= OC[C@H]1O[C@@H](O[C@H]2[C@H](O)[C@@H](O)C(O)O[C@@H]2CO)[C@H](O)[C@@H](O)[C@@H]1O (stereo partly drawn) &system= PcβGlu1 returns Km: 1700

Field: next compound
Considering CCCCCCCCO[C@@H]1O[C@H](CO)[C@@H](O)[C@H](O)[C@H]1O [Octyl-β-glucopyranoside] , its Km with PcβGlu1 was recorded as 540

---

Measured on: PcβGlu1
Construct: native secreted enzyme purified from wheat-bran culture supernatant (ammonium sulfate, phenyl sepharose); 134 kDa SDS-PAGE, 258 kDa gel filtration (abstract 241 kDa), homodimer
Test protocol: pNPβGlu hydrolysis, p-nitrophenol release at […] nm
Format: biochemical, Penicillium citrinum
Measurement context: competitive; substrate pNPβGlu; 50 mM sodium acetate pH 5.0, 40 °C; read-out: Ki
Quantity: Ki
In your response, put the unit directly after the numeric value.

Per the record, OC[C@H]1OC(O)[C@H](O)[C@@H](O)[C@@H]1O (stereo partly shown) [glucose] has Ki of 1890 µM
